system: KM12 colon; test: NCI-60 one-dose screen, 48 h; conditions: 10 µM unless noted
This is part of a sample that, as a whole, favours compounds with a hit. Of some 83,000 tested, about 20% had one in any assay. The source made the active and inactive calls. The calls were made as follows: active = growth percent below 10; inactive = the rest.
Could you please pick one outcome from this set? active, inactive

// query Tell me the assay call for O=C1CCC2(O)[C@@H]3Cc4ccc(O)c5c4[C@]2(CCN3Cc2ccoc2)C1O5 (some centres undefined) please.
// result inactive

// query Entry C=C1[C@@H](C)[C@H]2[C@H](Cc3ccccc3)NC(=O)[C@]23[C@@H](O)/C=C/[C@@](C)(O)C(=O)[C@@H](C)C/C=C/[C@H]3[C@@H]1O : call = ?
// result inactive

// query Tell me the assay call for COC(=O)[C@@H](NC(=O)c1cn(CCC2CCCCC2)c2ccccc12)C(C)(C)C please.
// result inactive

// query Dear all, I need the recorded test outcome for CCCCN1CCCC[C@@H]1C(=O)N[C@H](C(=O)N(C)[C@H](CCc1nc(C(=O)N[C@@H](Cc2ccccc2)C[C@H](C)C(=O)OC)cs1)C(C)C)[C@@H](C)CC , thank you.
// result inactive

// query Given CC(=O)O[C@H]1CC[C@H]2[C@@H]3CC=C4c5nc(-c6ccccc6)sc5CC[C@]4(C)[C@H]3CC[C@]12C , state the outcome it received in this test.
// result inactive

// query Which outcome was assigned to CN[C@]1(c2ccccc2Cl)CCCC[C@H]1NCCCN1CCN(C)CC1 in this test?
// result inactive

// query Could you please tell me the result logged for CCOC(=O)CCC(NC(=O)C(Cc1ccc(N(CCCl)CCCl)cc1)NC=O)C(=O)OCC (centres undefined) in this assay?
// result inactive

// query Please let me know the test result on file for CC(C)[C@@H]1NC(=O)[C@]2(C)CSC(=N2)c2csc(n2)CNC(=O)C[C@@H](/C=C/CCS)OC1=O .
// result active

// query Kindly provide the recorded test outcome for the following compound: O=C(CCCCCCC(=O)Nc1ccc(N(CCCl)CCCl)cc1)NO
// result inactive

// query Could you kindly confirm the outcome this assay logged for CCOc1ccc(/C=C/[N+](=O)[O-])cc1 ?
// result inactive

// query Could you kindly confirm the outcome this assay logged for CCCCCCC(=O)NC1=C(N2CC2)C(=O)C(NC(=O)CCCCCC)=C(N2CC2)C1=O ?
// result inactive

// query What did this assay record as the result for COC(=O)[C@@H](C[C@H](Cc1ccccc1)NC(=O)c1csc([C@@H](C[C@H](C(C)C)N(C)C(=O)[C@@H](NC(=O)[C@H]2CCCCN2C)C(C)C)OC(C)=O)n1)NC(=O)OCc1ccccc1 ?
// result active

// query I would be grateful if you could indicate the recorded call for C/C(CC(C)(C)N1CC1)=N\NC(=O)Nc1cccc2ccccc12 .
// result inactive

// query Could you kindly confirm the outcome this assay logged for O=C(c1cccc(O)c1O)c1cn(Cc2ccc(F)cc2)c2cccc(O)c12 ?
// result inactive

// query What is the recorded call for this compound in the test? CC(=O)Nc1nc2c(s1)CC[C@@]1(C)C2=CC[C@H]2[C@@H]3CC[C@H](O)[C@@]3(C)CC[C@@H]21
// result inactive

// query Answer briefly: the call reported for CN(C)C(=O)Oc1ccccc1 in this assay.
// result inactive

// query Outcome? CCCOC(=O)N[C@H]1CCc2c(Br)c(OC)c(OC)c(OC)c2-c2ccc(SC)c(=O)cc21
// result active

// query Assay result, entry COc1ccc(C(O)(C(=O)O)c2ccc(OC)cc2)cc1 — outcome?
// result inactive

// query What outcome does the record of this test show for O=C1NC(=O)C(=Cc2cn(C(=O)c3ccccc3)c3ccccc23)C(=O)N1 ?
// result inactive

// query Given Cn1cc(-c2csc(-c3cn(CCN4CCOCC4)c4ccc(F)cc34)n2)c2cccnc21 , state the outcome it received in this test.
// result inactive

// query # lookup: test call for CCCCCCCC(=O)OCC(=O)[C@]1(O)Cc2c(O)c3c(c(O)c2[C@@H](OC2CC(N)C(O)C(C)O2)C1)C(=O)c1c(OC)cccc1C3=O (some centres undefined)
// result active

// query Hi, do you know how COC(=O)[C@@H](C)C[C@H](Cc1ccccc1)NC(=O)c1nc([C@@H](C[C@H](C(C)C)N(C)C(=O)[C@@H](NC(=O)[C@H]2CC(=O)CCN2C)C(C)C)OC(C)=O)sc1C(C)C came out in this test?
// result active

// query State the result this test recorded for COc1ccc2c(c1)c(-c1nc(-c3cn(C)c4ncccc34)cs1)cn2CCCCN1CCCCC1 .
// result active

// query So what was the verdict on CN(C)C(=O)Oc1ccccc1-c1ccccc1 in this test?
// result inactive

// query Record lookup: outcome of this test for CC(C)CCC(=O)O[C@H]1CC[C@H]2[C@@H]3CCC4=CC(=O)CC[C@]4(C)[C@H]3CC[C@]12C ?
// result inactive

// query How did this test come out for CC[C@]12C=CCN3CC[C@@]4(c5ccc(OC)cc5N(C)[C@H]4[C@@](O)(C(=O)OC)[C@@H]1OC(=O)CCCC[P+](c1ccccc1)(c1ccccc1)c1ccccc1)[C@@H]32 ?
// result active

// query Could you please tell me the result logged for O=C1C2CCC1C(N1CCCC1)CC2 (centres undefined) in this assay?
// result inactive

// query Query: recorded result category for OCCCCCNC1CCCCC1 in this test
// result inactive

// query What is the recorded call for this compound in the test? C[C@]12CCc3sc(-c4ccccc4O)nc3C1=CC[C@@H]1[C@@H]2CC[C@]2(C)C(=O)CC[C@@H]12
// result inactive

// query Which result was noted for this compound in the test: C[C@@]1(CCCCCCCCCc2ccc(O)cc2)C[C@]2(C)OC(=O)C[C@@H]2OO1
// result inactive

// query # outcome recorded in this test, key = CCOC(=S)S[C@H]1C[C@@H]2[C@H](CC[C@]3(C)C(=O)CC[C@@H]23)[C@@]2(C)CCC(=O)C=C12
// result inactive

// query How was O=C(CC1(O)C(=O)N(Cc2ccccc2)c2ccc(F)cc21)c1ccc(C(=O)NCC2CCC3(CC2)OOC2(CCCCC2)OO3)cc1 (centres undefined) classified in this test?
// result active

// query Write down the call the test reported for this compound. Item: CNC(=O)Oc1cccc(C(F)(F)F)c1
// result inactive

// query Tell me the recorded outcome of this test for CC[C@H](C)[C@H](NC(=O)c1cccn1C)C(=O)N(C)[C@H](C[C@@H](OC(C)=O)c1nc(C(=O)N[C@@H](Cc2ccccc2)C[C@H](C)C(=O)OC)cs1)C(C)C .
// result inactive

---

tested on: CCRF-CEM leukemia; assay: NCI-60 one-dose screen, 48 h (100 = growth as untreated, 0 = no growth, -100 = all killed); details: 10 µM unless noted
Compounds without any hit were thinned out: in the full panel of roughly 83,000, 20% have a hit. Calls of active or inactive are those of the source. Rule for the calls: active = growth percent below 10; inactive = the rest.
Would you kindly list growth for each of these molecules?

Summary: C[C@]12CC[C@H]3[C@@H](CC[C@]4(O)C[C@@H](O[C@@H]5O[C@H](CO)[C@@H](O[C@@H]6OC[C@@H](O)[C@H](O)[C@H]6O)[C@H](O)[C@H]5O)CC[C@]34C=O)[C@@]1(O)CC[C@@H]2C1=CC(=O)OC1 , CCRF-CEM leukemia, growth = -14.5% (active)

Form: item Cc1cccc(N2CCN(C(C)C#N)CC2)c1 (centres undefined) ; test system CCRF-CEM leukemia; growth: 107% (inactive)

Assay CCRF-CEM leukemia, sample C/C1=C/C(=O)O[C@@H]2C[C@@H](CC[C@H](C)/C=C\C=C\CC1)O[C@@](O)([C@@H]1CSC(=O)N1CO)C2 , growth read: 11.1% (inactive)

Noted growth for C[S+]1C=Cc2ccccc2C1c1ccc(Cl)cc1 (centres undefined) , tested on CCRF-CEM leukemia: 73.7% (inactive)

---

system: SNB-19 CNS; experiment: NCI-60 one-dose screen, 48 h (100 = growth as untreated, 0 = no growth, -100 = all killed); conditions: 10 µM unless noted
About 83,000 compounds went through this panel and 20% of them were active in at least one assay; those are over-represented in the sample as a whole.
Consider the following compounds; for each one, report its growth.
Number only, in %; omit the unit.

Considering O=[N+]([O-])c1ccc(OP(=O)(CCl)N(CCCl)CCCl)cc1 (stereo not given) , its growth with SNB-19 CNS was recorded as 111

CC(=O)[O][Hg][c]1c(N)c(C)cc(C)c1F on SNB-19 CNS gives growth = 112

Recorded growth for O=C(CC1(O)C(=O)Nc2ccccc21)c1ccc(C(=O)NCC2CCC3(CC2)OOC2(CCCCC2)OO3)cc1 (stereo not given) on SNB-19 CNS was 86.4

Summary: O=C(CC1(O)C(=O)N(Cc2ccccc2)c2ccc(F)cc21)c1ccc(C(=O)NCC2CCC3(CC2)OOC2(CCCCC2)OO3)cc1 (stereo not given) , SNB-19 CNS, growth = 16.8

# Nc1ncnc2n[nH]nc12 with SNB-19 CNS: growth is 93.5

Origin of the recorded values: PubChem BioAssay (NCI)
